// provenance: PubChem BioAssay (NCI)

System: NCI-H522 lung
procedure details: NCI tumour cell line growth inhibition, 48 h
measure: log10 TGI (log10 of the value in µM)
Use the decimal logarithm of TGI (µM).

Inquiry: Give the measured log10 TGI of CC(C)[Si](OCC/C=C/C1CCC(=O)C1C(O)C1CCCCC1)(C(C)C)C(C)C (stereo unspecified) .
Reply text: 1.40

Others:
Inquiry: Can you look up the measured log10 TGI of `CCn1cc(C(=O)O)c(=O)c2cc(F)c(N3CCN(Cn4c(O)c(N=NC(=O)c5ccncc5)c5cc(Cl)ccc54)CC3)cc21` for me?
Reply text: 1.80

Inquiry: Give the measured log10 TGI of `Cc1nc2c(n1CCCl)C(=O)c1ccccc1C2=O` .
Reply text: 1.70

Inquiry: Any idea what its log10 TGI is? The molecule is `CN(C)Cc1cc(C(=O)/C=C/c2c(Cl)cccc2Cl)cc(CN(C)C)c1O`
Reply text: 1.03

Inquiry: May I ask what log10 TGI has been recorded for `CCCN(CCC)C(=S)N/N=C/c1cccc(C)n1` ?
Reply text: 0.40

Inquiry: Given `C[C@@H](Oc1cc(-c2cnn(C3CC4(CCNCC4)C3)c2)cnc1N)c1c(F)ccc(Cl)c1Cl` , state its recorded log10 TGI.
Reply text: 0.49

Inquiry: So what's the measured log10 TGI for this one? `COc1ccc2cc(CNCCCN3CCN(CCCNCc4ccc5cc(OC)ccc5c4)CC3)ccc2c1`
Reply text: 0.58

Inquiry: Which log10 TGI reading was recorded for the molecule `O=c1oc2ccccc2c(O)c1C(c1ccc2ccccc2c1)c1c(O)c2ccccc2oc1=O` ?
Reply text: 1.69

Inquiry: Field request: log10 TGI | item: `CN(C)c1cccc(-c2cc(=O)c3cc4c(cc3[nH]2)OCO4)c1`
Reply text: -0.56

---

Test system: SR leukemia
procedure details: NCI tumour cell line growth inhibition, 48 h
measure: TGI

Example entries begin here.
Inquiry: Looking for the measured TGI of `CN(C)c1ccc2[nH]c(O)c(C=Nc3ccc(S(N)(=O)=O)cc3)c2c1` , can you help?
Reply text: > 25 µM

Inquiry: May I ask what TGI has been recorded for `COc1ccc(OC)c2sc(N3C(=O)/C(=C/c4ccccc4S)N=C3c3ccccc3)nc12` ?
Reply text: 35.2 µM

Inquiry: I would be grateful if you could share the reported TGI for `O=C(n1[nH]c(=O)n(-c2ccc([N+](=O)[O-])cc2)c1=O)C(Cl)(Cl)Cl` .
Reply text: > 75 µM

Others:
Inquiry: Looking for the measured TGI of `C[C@]12CC[C@@H]3c4ccc(OCC(=O)O)cc4CC[C@H]3[C@@H]1CCC2=O` , can you help?
Reply text: > 100 µM

Inquiry: Bench note: what TGI did COC(=O)C1=C(C(=O)OC)C(C(=O)c2ccccc2)N2N=C(c3ccc(Cl)cc3)C=CC12 (centres undefined) show?
Reply text: > 100 µM

Inquiry: May I ask what TGI has been recorded for `C[C@]12CC[C@H]3[C@@H](CC=C4C[C@@H](O)CC[C@@]43C)[C@@H]1C/C(=C\c1cccc(OCCCn3ccnc3)c1)[C@@H]2O` ?
Reply text: 47.7 µM

Inquiry: // TGI lookup, key: `C=CCOCCCC(=O)C(=[N+]=[N-])C(=O)OC`
Reply text: > 100 µM

Inquiry: TGI for `CCOC(=O)C(=O)Nc1ccc([N+](=O)[O-])cc1C#N` ?
Reply text: > 100 µM

Inquiry: Consider the compound `O=c1[nH]cnc2c1nnn2[C@@H]1O[C@H](CO)[C@@H](O)[C@H]1O` and give its measured TGI.
Reply text: > 100 µM

Inquiry: Endpoint output: TGI of `CC1=CC[C@@]2(C)[C@@H]([C@@H]1C)[C@H]1CC[C@@H]3[C@@]4(C)CC[C@H](O)C(C)(C)[C@@H]4CC[C@@]3(C)[C@]1(C)C[C@@H]2O` . Value?
Reply text: 7.34 µM

Inquiry: Dear colleague, I am looking for the recorded TGI of the following compound: `COc1ccc(/C(Cl)=C(\C=O)c2cc(OC)c(OC)c(OC)c2)cc1OC`
Reply text: > 100 µM

Inquiry: Form field: reported TGI of `COc1ccc(C(=O)c2ccc(OC)cc2OC)cc1`
Reply text: > 100 µM

Inquiry: What value of measured TGI is listed for CC/C(=C/OC)P1(=O)OC(C)(C)CN1C(C)(C)C (centres undefined) ?
Reply text: > 100 µM

Inquiry: Data request, read-out TGI, for CC1N(O)C(c2ccccc2)C(c2ccccc2)=[N+]1[O-] (centres undefined)
Reply text: > 100 µM

Inquiry: Given the entry `CC(=O)Oc1cc2c(=O)oc3c(OC(C)=O)c(OC(C)=O)c(OC(C)=O)c4c(=O)oc(c1OC(C)=O)c2c34` , report its measured TGI.
Reply text: > 100 µM

Inquiry: Field request: TGI | item: `Cc1cc(Nc2ncc(Cl)c(Nc3ccccc3S(=O)(=O)C(C)C)n2)c(OC(C)C)cc1C1CCNCC1`
Reply text: 1.58 µM

Inquiry: So what's the measured TGI for this one? `COc1c(C(=O)O)cccc1-c1cccc(C(=O)NCCN(CCNC(=O)c2cccc(-c3cccc(C(=O)O)c3OC)c2OC)CCNC(=O)c2cccc(-c3cccc(C(=O)O)c3OC)c2OC)c1OC`
Reply text: 44.1 µM

Inquiry: Reported TGI for `N#C/C(=C\c1ccc(Cl)cc1)n1nnc2cc(F)c(F)cc21` : what is it?
Reply text: > 100 µM

Inquiry: Name the recorded TGI for CC1=C/C(=N\N(C)C)C(C(O)(C(F)(F)F)C(F)(F)F)C(C)(C)C1 (centres undefined) .
Reply text: > 100 µM

---

Tested on: PC-3 prostate
procedure details: NCI tumour cell line growth inhibition, 48 h
Each item that follows carries a reported TGI.
Provide the reading as a plain figure in µM.

Inquiry: Field request: TGI | item: CC(=O)C1=C(O)C2(O)C(=O)c3c(c(C)c4ccc(C)c(O)c4c3O)CC2C(N)C1=O (centres undefined)
Reply text: 11.7

Continuing:
Inquiry: Given the molecule CCCCCCCCO/N=C\c1c2c(O)c3c(O)c(C)c4c(c3c1O)C(=O)C(C)(O/C=C\C(OC)C(C)C(OC(C)=O)C(C)C(O)C(C)C(O)C(C)/C=C\C=C(\C)C(=O)N2)O4 (centres undefined) , what is its reported TGI?
Reply text: 7.02

---

Test system: PC-3 prostate
procedure details: NCI tumour cell line growth inhibition, 48 h
measure: TGI

Observe how each entry below is paired with its result.
Inquiry: What value of TGI has been recorded for this entry: `CN=C1Nc2ccccc2C(=S)N2CSC[C@@H]12`
Reply text: > 100 µM

Inquiry: Query (molecule): `C/C(=C\c1ccn(-c2ccc(N)cc2C(F)(F)F)n1)[C@@H]1C[C@@H]2O[C@]2(C)CCC[C@H](C)[C@H](O)[C@@H](C)C(=O)C(C)(C)[C@@H](O)CC(=O)O1` ; field requested: TGI
Reply text: > 11.1 µM

Inquiry: Fill in: TGI of `COc1cc2c3c(n(CCCn4ccnc4)c(=O)c2cc1OC)-c1ccccc1C3=O` is ___
Reply text: > 100 µM

Inquiry: Entry O=C(/C=C/C12c3ccccc3C(c3ccccc31)C1C(=O)NC(=O)C12)c1ccco1 (stereo unspecified) has what TGI?
Reply text: 5 µM

Inquiry: So what does the record say about TGI for `CCOC(=O)CCc1c(C)c2ccc(O)cc2oc1=O` ?
Reply text: > 100 µM

Inquiry: Give the measured TGI of C/C(=C\c1csc(C)n1)[C@@H]1C[C@@H]2O[C@]2(C)CCC[C@H](C)[C@H](O)[C@@H](C)C(=O)C(C)(C)[C@@H](O)CC(=O)O1 (tested in a mixture with another compound) .
Reply text: > 1 µM

Continuing:
Inquiry: What value of measured TGI is listed for `C=C(CO)[C@H]1CC/C(C)=C/CC/C(C)=C/C/C=C(\C)[C@H](O)C1` ?
Reply text: > 100 µM

Inquiry: Quick one: TGI for `CC(=O)NNc1nc(C)c(C(/C=C/c2ccccc2O)=N/NC(=O)c2ccncc2)s1` ?
Reply text: > 100 µM

---

GI50 values by entry
System: MALME-3M melanoma
procedure details: NCI tumour cell line growth inhibition, 48 h

Take a look at these entries with their results.
Inquiry: So what's the measured GI50 for this one? `Cc1c(N(C(=O)c2cc(-c3cc(Cl)ccc3C(=O)N3Cc4ccccc4C[C@H]3CN3CCOCC3)n(C)c2C)c2ccc(O)cc2)cc(C#N)n1C`
Reply text: 20.8 µM

Inquiry: Param item = `Cn1c(Cc2ccccc2)nc2cc3ccccc3cc21` ; retrieve measured GI50.
Reply text: 20.7 µM

We now examine a further molecule.
Inquiry: Using the record for `C=C1C(=O)O[C@H]2[C@H]1CC/C(COC(=O)NCCc1c[nH]c3ccccc13)=C\CC[C@@]1(C)O[C@@H]21` , report its GI50.
Reply text: 1.94 µM
